- run_description: Volume of distribution at steady state in ICR mouse at 3 mg/kg, iv measured for 24 hrs by LC-MS/MS analysis
- Type: ADME, organism-based
- experimental_setup: in vivo, read-out: Vdss
measured_parameter: Vd (L/kg)
Use L/kg as the unit, but write only the number.

Request: Any idea what Vd was measured for C=CC(=O)N1CCN(c2nc(OC[C@@]34CCCN3C[C@H](F)C4)nc3c2cc(-c2cccc4cccc(C)c24)n3C)C[C@@H]1CC#N ?
Result: 4.98

====

- run_description: AUC (0 to infinity) in ICR mouse at 3 mg/kg, iv measured for 24 hrs by LC-MS/MS analysis
- Format: ADME, organism-based
- Parameters: dose 3 mg/kg, time 24 hrs, route iv
- experimental_setup: in vivo
measured_parameter: AUC(0-inf) (ng·h/mL)
I only need the number, in ng·h/mL, no unit after it.

Request: Tell me the measured AUC(0-inf) of C=CC(=O)N1CCN(c2nc(OC[C@@]34CCCN3C[C@H](F)C4)nc3c2cc(-c2cccc4cccc(C)c24)n3C)C[C@@H]1CC#N , please.
Result: 804
